Data origin: patent US9212180B2

# study-system: menin-MLL interaction (Homo sapiens, UniProt O00255)
# assay-protocol: biochemical
measurement-name: pIC50
Answers are plain numbers, as −log10 of the molar value.

Known results for compounds:
• CC(=O)NCc1ccc(OCCCN2CCC(C(O)(c3ccccc3)c3ccccc3)CC2)cc1 [Compound B38] = 4.68
• OC(c1ccccc1)(c1ccccc1)C1CCN(CCCOc2ccc(C(F)(F)F)cc2)CC1 [Compound B3] = 4.28
• N#Cc1ccc(NCCCN2CCC(C(O)(c3ccccc3)c3ccccc3)CC2)cc1 [Compound B42] = 5.02

Next compound, please.
Which measured pIC50 value corresponds to CS(=O)(=O)NCc1ccc(OCCCN2CCC(C(O)(c3ccccc3)c3ccccc3)CC2)cc1 [Compound B25] ?
4.40

###

# study-system: menin-MLL interaction (Homo sapiens, UniProt O00255)
# assay-protocol: biochemical
measurement-name: IC50 (µM)
Answers are plain numbers, in µM.

- NCc1ccc(OCCCN2CCC([C@](O)(c3ccccc3)C3CCCC3)CC2)cc1 [Compound B27]: 13.9
- NCc1ccc(OCCCN2CCC([C@@](O)(c3ccccc3)C3CCCC3)CC2)cc1 [Compound B28]: 13.1

Hey, can you go through the list below and give me IC50 for every item?
1. CC(COc1ccc(C#N)c(F)c1)CN1CCC(C(O)(c2ccccc2)c2ccccc2)CC1 (centres unmarked) [Compound B49]
2. N#Cc1ccc(OCCCN2CCC(C(O)(C3CCCC3)C3CCCCN3)CC2)cc1 (centres unmarked) [Compound B63]

70.8
28

###

# study-system: menin-MLL interaction (Homo sapiens, UniProt O00255)
# Sequence (O00255 1-610): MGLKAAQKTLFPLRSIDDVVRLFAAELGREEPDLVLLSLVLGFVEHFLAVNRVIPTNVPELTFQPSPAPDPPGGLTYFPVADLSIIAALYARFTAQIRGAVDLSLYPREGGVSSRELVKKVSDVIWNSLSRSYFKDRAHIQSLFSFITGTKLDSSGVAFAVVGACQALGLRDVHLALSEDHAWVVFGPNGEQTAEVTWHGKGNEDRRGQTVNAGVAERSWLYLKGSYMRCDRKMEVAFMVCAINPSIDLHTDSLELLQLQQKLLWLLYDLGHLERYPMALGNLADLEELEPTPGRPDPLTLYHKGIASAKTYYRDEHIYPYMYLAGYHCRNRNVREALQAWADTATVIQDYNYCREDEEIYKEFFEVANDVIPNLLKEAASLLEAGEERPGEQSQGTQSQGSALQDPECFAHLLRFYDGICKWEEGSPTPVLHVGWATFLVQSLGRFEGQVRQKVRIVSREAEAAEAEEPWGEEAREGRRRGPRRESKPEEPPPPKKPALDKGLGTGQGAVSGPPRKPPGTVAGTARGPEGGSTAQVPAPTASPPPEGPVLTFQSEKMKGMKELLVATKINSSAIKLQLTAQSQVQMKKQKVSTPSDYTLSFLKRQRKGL
# assay-protocol: biochemical
Give measured IC50 for each item. Keep answers brief.
Numbers only, in µM.

Worked examples follow.
• N#Cc1ccc(OC[C@@H](O)CN2CCC(C(O)(c3ccccc3)c3ccccc3)CC2)c(F)c1 [Compound B50] = 40
• O[C@H](COc1ccc(OC(F)(F)F)cc1)CN1CCC(C(O)(c2ccccc2)c2ccccc2)CC1 [Compound B48] = 31
• OC(c1ccccc1)(c1ccccc1)C1CCN(CCCOc2ccc(-c3cncnc3)cc2)CC1 [Compound B39] = 83
• N#Cc1ccc(OC[C@@H](O)CN2CCC(C(O)(c3ccccc3)c3ccccc3)CC2)cc1F [Compound B51] = 15
• CN(C)CCOC(c1ccccc1)(c1ccccc1)C1CCN(CCCOc2ccc(C#N)cc2)CC1 [Compound B56] = 4.2
• COC(c1ccccc1)(c1ccccc1)C1CCN(CCCOc2ccc(C#N)cc2)CC1 [Compound B55] = 5.3
• CS(=O)(=O)c1ccc(OCCCN2CCC(C(O)(c3ccccc3)c3ccccc3)CC2)cc1 [Compound B33] = 58.5

Attention now turns to another entry.
Give menin-MLL interaction (Homo sapiens, UniProt O00255) IC50 for COc1ccc(C(O)(C2CCCC2)C2CCN(CCCOc3ccc(C#N)cc3)CC2)cn1 (centres unmarked) [Compound B57]
75

###

# study-system: menin-MLL interaction (Homo sapiens, UniProt O00255)
# assay-protocol: biochemical
measurement-name: IC50
I'd appreciate it if you wrote the number followed by its unit.

Some entries whose results are on file:
• [N-]=[N+]=Nc1ccc(OCCCN2CCC(C(O)(c3ccccc3)c3ccccc3)CC2)cc1 [Compound B14] = 58 µM
• OC(c1ccccc1)(c1ccccc1)C1CCN(CCCOc2ccc(-c3cccnc3)cc2)CC1 [Compound B36] = 22.6 µM
• N#Cc1ccc(OC[C@@H](O)CN2CCC(C(O)(c3ccccc3)C3CCCC3)CC2)cc1 (stereo partly shown) [Compound B43] = 0.948 µM

Attention now turns to another entry.
IC50 lookup needed for N#Cc1ccc(OCCCN2CCC(C(O)(c3ccccc3)c3ccc(F)cc3)CC2)cc1 (stereo not shown) [Compound B13] , thanks.
77.5 µM

###

# study-system: menin-MLL interaction (Homo sapiens, UniProt O00255)
# assay-protocol: biochemical
For each record, write down the corresponding pIC50.
Give bare numbers, as −log10 of the molar value.

Consider the worked cases shown below.
- COC(c1ccccc1)(C1CCCC1)C1CCN(CCCOc2ccc(C#N)cc2)CC1 (centres unmarked) [Compound B62]: 6.13
- N#Cc1ccc(OC[C@H](O)CN2CCC(C(O)(c3ccccc3)C3CCCC3)CC2)cc1 (some centres unmarked) [Compound B41]: 5.94
- N#Cc1ccc(OCCCN2CCC(C(O)(c3ccccc3)C3CCCC3)CC2)cn1 (centres unmarked) [Compound B61]: 5.05
- OC(c1ccccc1)(c1ccccc1)C1CCN(CCCOc2ccc(OC(F)(F)F)cc2)CC1 [Compound B4]: 4.01
- N#Cc1ccc(OCCCN2CCC(C(O)(c3cccc(F)c3)c3nccs3)CC2)cc1 (centres unmarked) [Compound B83]: 6.39

Okay, here is my list. What is pIC50 for each of these?
1. N#Cc1ccc(OCC(O)CN2CCC(C(O)(c3cccc(F)c3)c3ccccn3)CC2)cc1 (centres unmarked) [Compound B86]
2. N#Cc1ccc(OCCCN2CCC(C(O)(c3ccccc3)C(F)(F)F)CC2)cc1 (centres unmarked) [Compound B23]
3. OC(c1ccccc1)(c1ccccc1)C1CCN(CCCOc2ccc(-n3ccnn3)cc2)CC1 [Compound B10]

[6.65, 4.51, 4.54]

###

# study-system: menin-MLL interaction (Homo sapiens, UniProt O00255)
# assay-protocol: biochemical
One threshold, 4 µM, splits the recorded IC50 values: lower ones are yes (1), equal or higher ones are no (0).

* OC(c1ccccc1)(c1ccccc1)C1CCN(CCCOc2ccc(-c3ccncc3)cc2)CC1 [Compound B35] | no (0)

Please look at the following molecule next.
API: query returns whether the molecule falls strictly under 4 µM in IC50. Query: NCc1ccc(OCCCN2CCC(C(O)(C3=CCCC3)c3ccccc3)CC2)cc1 (centres unmarked) [Compound B34]
no (0)

###

# study-system: menin-MLL interaction (Homo sapiens)
# assay-protocol: biochemical
Returns: string. Value is 1 if measured IC50 is below 10 µM, and 0 if it is greater than or equal to it.

Past entries and their recorded results:
• N#Cc1ccc(OCCCN2CCC(C(O)(Cc3ccccc3)C3=CCCC3)CC2)cc1 (stereo not shown) = 0
• N#Cc1ccc(OCCCN2CCC(C(O)(C3=CCCC3)c3ccccc3)CC2)cc1 (stereo not shown) = 1
• N#Cc1ccc(OCCCN2CCC(C(O)(c3ccccc3)c3ccccc3)CC2)cc1F = 0

Does this compound meet the criterion IC50 < 10 µM? Oc1ccccc1-c1ccc(OCCCN2CCC(C(O)(c3ccccc3)c3ccccc3)CC2)cc1
1

What do you get for NS(=O)(=O)c1ccc(OCCCN2CCC(C(O)(c3ccccc3)c3ccccc3)CC2)cc1 ?
0

Okay, and OC(c1ccccc1)(c1ccccc1)C1CCN(CCCOc2ccc(Cl)cc2)CC1 ?
0

Request: N#Cc1ccc(OCCCN2CCC(C(O)(c3cc(F)cc(F)c3)c3ccccn3)CC2)cc1 (stereo not shown)
1

###

# study-system: menin-MLL interaction (Homo sapiens, UniProt O00255);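 also: fluorescence polarization competition assay, inhibitors lower the fluorescence anisotropy signal, IC50 taken from this drop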
# assay-protocol: biochemical
measurement-name: IC50 (µM)
One number for each entry, in µM.

* N#Cc1ccc(OCCCN2CCC(C(O)(c3ccccn3)C3CCCC3)CC2)cn1 (stereo not drawn) [Compound B64] | 4.05
* O=C(c1ccc(OCCCN2CCC(C(O)(c3ccccc3)C3CCCC3)CC2)cc1)C1CCCC1 (stereo not drawn) [Compound B26] | 3.95
* CN(C)S(=O)(=O)c1ccc(OCCCN2CCC(C(O)(c3ccccc3)c3ccccc3)CC2)cc1 [Compound B30] | 40
* N#CCc1ccc(OCCCN2CCC(C(O)(c3ccccc3)c3ccccc3)CC2)cc1 [Compound B40] | 17.4
* N#Cc1ccc(OCCCN2CCC(C(O)(C3CCCC3)C3CCCC3)CC2)cc1 [Compound B31] | 1.4

// lookup IC50 for NS(=O)(=O)c1ccc(OCCCN2CCC(C(O)(c3cccc(F)c3)c3nccs3)CC2)cc1 (stereo not drawn) [Compound B82]
0.354
